Biological target: Cannabinoid receptor 1 (Homo sapiens)
Sequence (P21554 whole entry): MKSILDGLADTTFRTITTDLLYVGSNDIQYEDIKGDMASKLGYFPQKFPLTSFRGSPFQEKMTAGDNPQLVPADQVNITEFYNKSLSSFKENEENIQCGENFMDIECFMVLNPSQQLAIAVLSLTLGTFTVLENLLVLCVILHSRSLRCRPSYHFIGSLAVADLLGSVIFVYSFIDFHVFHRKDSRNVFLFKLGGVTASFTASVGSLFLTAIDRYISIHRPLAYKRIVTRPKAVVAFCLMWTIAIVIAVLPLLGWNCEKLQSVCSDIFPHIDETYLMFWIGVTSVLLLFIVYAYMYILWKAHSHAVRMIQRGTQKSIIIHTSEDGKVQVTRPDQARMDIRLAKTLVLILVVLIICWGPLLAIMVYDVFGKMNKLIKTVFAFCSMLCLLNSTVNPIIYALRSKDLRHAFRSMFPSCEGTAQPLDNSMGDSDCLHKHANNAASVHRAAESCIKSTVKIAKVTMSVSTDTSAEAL
Assay: Displacement of [3H]CP-55940 from human CB1 receptor expressed in CHO cells at 10 uM
Type: cell-based
Recorded metric: Activity (%)
Write down the numeric answer in % and omit the unit.

Use the examples below as a reference point.
O=C(NC1CCCCC1)c1cnn(-c2ccc(Cl)cc2Cl)c1-c1ccc(Br)cc1; 81
O=C(NC1CC1)c1cnn(-c2ccc(Cl)cc2Cl)c1-c1ccc(Br)cc1; 84
O=C(NC1CCCCCC1)c1cnn(-c2ccc(Cl)cc2Cl)c1-c1ccc(Cl)cc1; 78
O=C(NC1CC1)c1cnn(-c2ccc(Cl)cc2Cl)c1-c1ccc(I)cc1; 91
O=C(NN1CCCCC1)c1cnn(-c2ccc(Cl)cc2Cl)c1-c1ccc(Cl)cc1; 79
Cc1ccc(-c2c(C(=O)NN3CCCCC3)cnn2-c2ccc(Cl)cc2Cl)cc1; 29
O=C(NC1CC1)c1cnn(-c2ccc(Cl)cc2Cl)c1-c1ccc(Cl)cc1; 87
O=C(NN1CCOCC1)c1cnn(-c2ccc(Cl)cc2Cl)c1-c1ccc(F)cc1; 30

Exercise: Check the records and state Activity for CN1CCN(NC(=O)c2cnn(-c3ccc(Cl)cc3Cl)c2-c2ccc(I)cc2)CC1
Solution: 78

Exercise: Check the records and state Activity for O=C(NC1CCCCC1)c1cnn(-c2ccc(Cl)cc2Cl)c1-c1ccc(Cl)cc1
Solution: 68

Exercise: Check the records and state Activity for O=C(NN1CCCCC1)c1cnn(-c2ccc(Cl)cc2Cl)c1-c1ccc(I)cc1
Solution: 94

Exercise: Check the records and state Activity for O=C(NC12CC3CC(CC(C3)C1)C2)c1cnn(-c2ccc(Cl)cc2Cl)c1-c1ccc(I)cc1
Solution: 76

Exercise: Check the records and state Activity for Cc1ccc(-c2c(C(=O)NC3CCCCC3)cnn2-c2ccc(Cl)cc2Cl)cc1
Solution: 48

Exercise: Check the records and state Activity for O=C(NN1CCCCC1)c1cnn(-c2ccc(Cl)cc2Cl)c1-c1ccc(F)cc1
Solution: 43
